- experimental.conditions: in PEG-200, 318.15 K
reported.property: solubility (mole fraction)
One number for each entry.

May I ask what solubility (mole fraction) has been recorded for COc1c2occc2c(OC)c2c(=O)cc(C)oc12 ? 0.00202

----------
- experimental.conditions: in water, 298.15 K
reported.property: solubility (mole fraction)
Give bare numbers.

May I ask what solubility (mole fraction) has been recorded for COc1c2occc2c(OC)c2c(=O)cc(C)oc12 ? 1.33e-05

----------
- experimental.conditions: in water, 303.15 K
reported.property: solubility (mole fraction)
One number for each entry.

May I ask what solubility (mole fraction) has been recorded for COc1c2occc2c(OC)c2c(=O)cc(C)oc12 ? 1.23e-05

----------
- experimental.conditions: in DMSO, 313.15 K
reported.property: solubility (mole fraction)
Numbers only.

May I ask what solubility (mole fraction) has been recorded for COc1c2occc2c(OC)c2c(=O)cc(C)oc12 ? 0.0132

----------
- experimental.conditions: in PEG-200, 308.15 K
reported.property: solubility (mole fraction)
Give bare numbers.

May I ask what solubility (mole fraction) has been recorded for COc1c2occc2c(OC)c2c(=O)cc(C)oc12 ? 0.00173

----------
- experimental.conditions: in water, 308.15 K
reported.property: solubility (mole fraction)
Answers are plain numbers.

May I ask what solubility (mole fraction) has been recorded for COc1c2occc2c(OC)c2c(=O)cc(C)oc12 ? 1.88e-05

----------
- experimental.conditions: in isopropanol, 303.15 K
reported.property: solubility (mole fraction)

May I ask what solubility (mole fraction) has been recorded for COc1c2occc2c(OC)c2c(=O)cc(C)oc12 ? 0.002

----------
- experimental.conditions: in PEG-400, 318.15 K
reported.property: solubility (mole fraction)
One number for each entry.

May I ask what solubility (mole fraction) has been recorded for COc1c2occc2c(OC)c2c(=O)cc(C)oc12 ? 0.00448

----------
- experimental.conditions: in ethanol, 313.15 K
reported.property: solubility (mole fraction)

May I ask what solubility (mole fraction) has been recorded for COc1c2occc2c(OC)c2c(=O)cc(C)oc12 ? 0.00311

----------
- experimental.conditions: in PEG-400, 308.15 K
reported.property: solubility (mole fraction)

May I ask what solubility (mole fraction) has been recorded for COc1c2occc2c(OC)c2c(=O)cc(C)oc12 ? 0.00448

----------
- experimental.conditions: in ethanol, 298.15 K
reported.property: solubility (mole fraction)
Numbers only.

May I ask what solubility (mole fraction) has been recorded for COc1c2occc2c(OC)c2c(=O)cc(C)oc12 ? 0.00255

----------
- experimental.conditions: in DMSO, 308.15 K
reported.property: solubility (mole fraction)
Answers are plain numbers.

May I ask what solubility (mole fraction) has been recorded for COc1c2occc2c(OC)c2c(=O)cc(C)oc12 ? 0.0131

----------
- experimental.conditions: in isopropanol, 298.15 K
reported.property: solubility (mole fraction)
Answers are plain numbers.

May I ask what solubility (mole fraction) has been recorded for COc1c2occc2c(OC)c2c(=O)cc(C)oc12 ? 0.00195

----------
- experimental.conditions: in ethanol, 318.15 K
reported.property: solubility (mole fraction)
One number for each entry.

May I ask what solubility (mole fraction) has been recorded for COc1c2occc2c(OC)c2c(=O)cc(C)oc12 ? 0.00338

----------
- experimental.conditions: in DMSO, 298.15 K
reported.property: solubility (mole fraction)
Answers are plain numbers.

May I ask what solubility (mole fraction) has been recorded for COc1c2occc2c(OC)c2c(=O)cc(C)oc12 ? 0.0128

FYI, the data here is from BigSolDB 2.1.
